Where do these numbers come from? They come from paper PMC2756588.

Target: Rvs167, P39743
Sequence (P39743 419-482): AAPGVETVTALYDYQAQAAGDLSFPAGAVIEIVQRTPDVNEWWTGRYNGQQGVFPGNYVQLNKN
Assay: SPOT array
Conditions: median of control spots 2707
Assignment: determine reported SPOT intensity for the given binders.
Give bare numbers.

Hey, can you go through the list below and give me SPOT intensity for every item?
1. RRRIAYPFYPFKKLG
2. IRMPSNPALPKKLLN
3. TKFRISLGLPVGAIM
4. ISPPASPPPEFDFSK
5. RKNRAPPQRPRFNRD
6. TTAPALPSLPPPPLL
7. RLPAPPPPPRRGPAP

0
0
0
0
2
0
1500
